Hello, the source for this data is patent US8741931B2, in case you need it.

Target: PKC delta kinase (Homo sapiens, UniProt Q05655)
Sequence (Q05655 whole entry): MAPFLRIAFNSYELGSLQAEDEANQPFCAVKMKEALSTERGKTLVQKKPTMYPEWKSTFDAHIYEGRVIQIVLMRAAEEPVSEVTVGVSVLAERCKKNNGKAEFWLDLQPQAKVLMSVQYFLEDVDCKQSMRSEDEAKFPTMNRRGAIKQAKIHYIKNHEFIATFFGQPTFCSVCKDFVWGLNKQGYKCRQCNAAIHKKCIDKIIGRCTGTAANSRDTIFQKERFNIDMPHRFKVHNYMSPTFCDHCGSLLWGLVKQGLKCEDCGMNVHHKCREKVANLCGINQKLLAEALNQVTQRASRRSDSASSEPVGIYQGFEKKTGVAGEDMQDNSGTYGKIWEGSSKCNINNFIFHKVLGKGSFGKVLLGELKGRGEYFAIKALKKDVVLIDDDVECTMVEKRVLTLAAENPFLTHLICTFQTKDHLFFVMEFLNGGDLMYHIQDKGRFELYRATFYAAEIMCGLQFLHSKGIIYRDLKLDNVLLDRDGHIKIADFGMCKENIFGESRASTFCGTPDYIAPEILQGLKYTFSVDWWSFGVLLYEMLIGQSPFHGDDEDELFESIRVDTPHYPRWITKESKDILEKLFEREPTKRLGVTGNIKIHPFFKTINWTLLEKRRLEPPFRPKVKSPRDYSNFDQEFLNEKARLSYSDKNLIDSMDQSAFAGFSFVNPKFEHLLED
Assay: PKC Delta (coupled enzyme assay)
Format: biochemical
Settings: 150 μM ATP, 46 nM PKC delta; read-out: Ki PKC delta
quantity-kind: Ki

| compound | endpoint-value |
| --- | --- |
| CC[C@H]1CN(c2ccc(C(F)(F)F)c(C(=O)c3cccnc3N)n2)C[C@H](C(C)C)N1 | 50 to 500 nM |
| CC(C)(C)C1CN(c2ccc(C(F)(F)F)c(C(=O)c3cccnc3N)n2)CCN1 (stereo not shown) | > 2800 nM |
| CC(Nc1ccc(C(F)(F)F)c(C(=O)c2cccnc2N)n1)[C@@H](O)c1ccccc1 (stereo partly shown) | > 2800 nM |

Value sought for every listed compound: Ki.
1. CC(C)C[C@H]1CN(c2ccc(C#CC(C)(C)O)c(C(=O)c3cccnc3N)n2)CCN1
2. NCC1CCC(CNc2ccc(C(F)(F)F)c(C(=O)c3cccnc3N)n2)CC1 (stereo not shown)
3. CCC(N)(CNc1ccc(C(F)(F)F)c(C(=O)c2cccnc2N)n1)c1ccccc1 (stereo not shown)
4. CC(C)[C@H]1CN(c2ccc(C(F)(F)F)c(C(=O)c3cccnc3N)n2)C[C@H](c2ccccc2)N1

Outgoing:
1: > 2800 nM; 2: > 2800 nM; 3: 50 to 500 nM; 4: 50 to 500 nM

Value sought for every listed compound: Ki.
1. CC(N)(CNc1ccc(C(F)(F)F)c(C(=O)c2cccnc2N)n1)Cc1ccccc1 (stereo not shown)
2. CC(C)C[C@H]1CN(c2ccc(C(F)(F)F)c(C(=O)c3cc(Cl)cnc3N)n2)CCN1
3. CC(C)C[C@H]1CN(c2ccc(C(F)(F)F)c(C(=O)c3cccnc3N)n2)C[C@H](C)N1
4. CC(C)(C)[C@H](N)COc1ccc(C(F)(F)F)c(C(=O)c2cccnc2N)n1

Outgoing:
1: 50 to 500 nM; 2: 50 to 500 nM; 3: 500 to 2800 nM; 4: 500 to 2800 nM

----------
Field: pKi. Provide a value for each of the compounds that follow.
Molecular target: PKC delta kinase (Homo sapiens, UniProt Q05655)
Test: PKC Delta (coupled enzyme assay)
Assay type: biochemical
Settings: 150 μM ATP, 46 nM PKC delta; read-out: Ki PKC delta
pKi: −log10 of the molar value.

// below: answered compounds
| compound | target-under-test | pKi |
| --- | --- | --- |
| CCCC1CN(c2ccc(C(F)(F)F)c(C(=O)c3cccnc3N)n2)CCN1 (centres unmarked) [compound 434] | PKC delta kinase (Homo sapiens, UniProt Q05655) | 6.30 to 7.30 |
| Cc1sc(N2CCN[C@@H](CC(C)C)C2)nc1C(=O)c1cccnc1N [compound 505] | PKC delta kinase (Homo sapiens, UniProt Q05655) | 6.30 to 7.30 |
| Nc1ncccc1C(=O)c1cccc(N2CCCN(CCc3ccccc3)CC2)n1 [compound 120] | PKC delta kinase (Homo sapiens, UniProt Q05655) | 5.55 to 6.30 |
| CC(C)C[C@H]1CN(c2ccc(C(F)(F)F)c(C(=O)c3cccnc3N)n2)CC2(CCC2)N1 [compound 471] | PKC delta kinase (Homo sapiens, UniProt Q05655) | 6.30 to 7.30 |
| Nc1ncccc1C(=O)c1nc(NCCO)ccc1C(F)(F)F [compound 423] | PKC delta kinase (Homo sapiens, UniProt Q05655) | < 5.55 |

Value sought for every listed compound: pKi.
1. Nc1ncccc1C(=O)c1cccc(N2CCCN(CC3CC3)CC2)n1 [compound 117]
2. CC#Cc1ccc(N2CCN[C@H](c3ccccc3)C2)nc1C(=O)c1cccnc1N [compound 465]
3. C[C@@H]1CNCCN1c1ccc(C(F)(F)F)c(C(=O)c2cccnc2N)n1 [compound 484]

Outgoing:
1: 6.30 to 7.30; 2: 6.30 to 7.30; 3: 6.30 to 7.30
